Where these numbers come from: patent US20170088605A1

molecular target: BKV serotype II chimeric infectious virus (VP1 of isolate SB) (BK virus serotype II); experiment: cell-based or functional assay
PROPERTY LABEL: neutralization EC50

BINDER	VALUE MEASURED
P7G11 (antibody, human IgG1, lambda, V domains shown) VH: QVQLQESGPGLAKPSQTLSLTCSVSGGSISSGGYSWSWIRQPPGKGLEYIGYIYYRGTTYYNPSLKSRITMSVDTSNNQISLKLTSVTAADTAVYYCARALTHLVGVGWFDPWGQGTMVTVSS VL: QSVLTQPPSVSAAPGQKVTISCSGGSSNLGSNYVSWYQQLPGTAPKLLIYDNNKRPSGIPDRFSGSKSGTSATLGITGLQTGDEADYYCGTWDGSLSAWVFGGGTKVTVLG	0.187 µg/mL
P8D11C (antibody, V domains shown) VH: QVQLVESGGTLVQPGGSLRLSCAASGFTFQNYWMTWVRQAPGKGLEWVANIKKDGSEKYYVDSVRGRFTISRDNAKNSLFLQMNSLRPEDTAVYFCATVRSGRYFALDDWGQGTLVTVSS VL: QSVLTQPPSVSVAPGKTARITCGGDNIGSRPVHWYQQKPGQAPILVVYDDSNRPSGIPERFSGSNSGNTATLTISRVEAGDEADYYCQVWSSSTDHPFGGGTKVTVLG	0.18 µg/mL
P165E2 (antibody, human IgG1, lambda, V domains shown) VH: QVQLQESGPGLVKPSETLSLTCTVSGGSISRDYWTWVRQPPGEGLEWIGNIYYSGSTNYNPSLKSRVTISVAASKKQFSLKLTSVTAADTAVYYCARVPGCSSTSCIDGWFDPWGQGILVTVSS VL: QSVLTQPPSLSAAPGQRVTISCSGSSSNIGNTYVSWYQQLPGTAPKLLIYDNNKRPSGIPGRFSGSKSGTSATLGITGLQTGDEAAYYCGTWDSSLSAWVFGGGTRLTVLG	0.081 µg/mL
NEG447A (antibody, human IgG1, lambda, V domains shown) VH: QVQLQESGPGLVKPSETLSLTCTVSGGSISRDYWSWVRQPPGAGLEWIGNIYYSGSTNYNPSLKSRVTISVATNKKQFSLKLTSVTAADTAVYYCARVPGCSSTSCIDGWFDPWGQGILVTVSS VL: QSVLTQPPSVSAAPGQKVTISCSGSSSNIGNTYVSWYQQLPGTAPKLLIYDNNKRPSGIPDRFSGSKSGTSATLGITGLQTGDEADYYCGTWDSSLSAWVFGGGTRLTVLG	0.11 µg/mL
P8D11A (antibody, V domains shown) VH: QVQLVESGGTLVQPGGSLRLSCAASGFTFSNYWMTWVRQAPGKGLEWVANIKKDGSEKYYVDSVRGRFTISRDNAKNSLFLQMNSLRPEDTAVYFCATVRSGRYFALDDWGQGTLVTVSS VL: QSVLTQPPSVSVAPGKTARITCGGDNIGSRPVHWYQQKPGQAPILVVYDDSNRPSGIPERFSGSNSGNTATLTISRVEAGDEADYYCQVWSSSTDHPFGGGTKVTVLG	0.029 µg/mL
